assay: in vitro; settings: pig
Measure: Kp at 4 h

# input Consider the molecule shown here: CC(C)NCC(O)COc1cccc2ccccc12 (stereo not shown) What is its recorded Kp at 4 h?
# output 0.762

* * *

experiment: Pharmacokinetic simulation of topical timolol instillation with lens compartment; parameters: species or system rabbit; conditions: topical; rabbit lens; adjusted manually to in vivo data on timolol distribution (Lee et al.); read-out: Kp (lens-buffer partition coefficient), model parameter
Measure: Kp
Reply briefly: the number, and no unit.

# input // returns reported Kp for input CC(C)(C)NC[C@H](O)COc1nsnc1N1CCOCC1
# output 0.35
